Assay: Quantitative High-Throughput drug screen in 47 multiple myeloma cell lines against the NCATS MIPE library collection: KHM11_PLB cell viability assay (AID 1918962); also: nearly all actives have a fitted effect of over 35% in size
Details: KHM11 myeloma cell viability, CellTiter-Glo ATP luminescence, 48 h; series mostly up to 45.8 µM
Inconclusive results are not listed. Activity calls are given as the source filed them. Calls follow the shape of the dose curve; as a rule, active = well fitted cell-killing curve with a large enough effect; inconclusive = small, poorly fitted or top-dose-only effect, or effect the other way; inactive = no such curve, though single readings can be large or run the other way.
Pick one: Yes (active), No (inactive)

Some solved entries appear below for comparison.
smiles record: O=C(C=Cc1cccc(S(=O)(=O)Nc2ccccc2)c1)NO
label value: Yes
//
smiles record: COc1cc2ncn(-c3cc(OCc4ccccc4C(F)(F)F)c(C(N)=O)s3)c2cc1OC
label value: Yes

Answer briefly: the call reported for `O=C(Nc1ncc(-c2cc(C(F)F)nn2-c2c(Cl)cccc2Cl)s1)C1CC1` in this assay.
Yes

---

Please go through the items and note down their parasite growth remaining, % of DMSO control (lower = more inhibition).
Assay: qHTS profiling of the MIPE4 collection as inhibitors of Plasmodium falciparum (DD2) proliferation (AID 743345)
Details: P. falciparum Dd2 in erythrocytes, SYBR Green DNA, 72 h; at 28.5 µM (top of the series) unless noted
Give bare numbers, in %.

smiles record: COc1cc2c(NC3CCN(C(C)C)CC3)nc(C3CCCCC3)nc2cc1OCCCN1CCCC1
number: 6.68

smiles record: C[C@]1(CO)CN(c2cc(C(=O)Nc3ccc4c(c3)-c3c(c(C(N)=O)nn3-c3ccc(F)cc3)CC4)c(Cl)cn2)C[C@@]1(C)CO
number: 17.1

smiles record: CCCn1c(=O)c2[nH]c(-c3cnn(Cc4cccc(C(F)(F)F)c4)c3)nc2n(CC)c1=O
number: 73.8

smiles record: Cc1cn2c(-c3cn[nH]c3)cnc2c(Nc2ccc(C(=O)N3CCNCC3)cc2F)n1
number: 11.4

Please report parasite growth remaining, % of DMSO control (lower = more inhibition) for every entry that follows.
1. Cc1cc(C(=O)N2CCN(c3cccc(Cl)c3)CC2)n(-c2ccccc2)n1
2. Nc1nccc(Oc2ccc(NC(=O)c3c[nH]cc(-c4ccc(F)cc4)c3=O)cc2F)c1Cl
3. CC=CC1=C(C(=O)O)N2C(=O)[C@H](NC(=O)[C@H](N)c3ccc(O)cc3)[C@@H]2SC1
4. Nc1ccn([C@@H]2O[C@H](CO)[C@H](O)C2(F)F)c(=O)n1
5. N#CCNC(=O)c1ccc(-c2ccnc(Nc3ccc(N4CCOCC4)cc3)n2)cc1

1. 107
2. 50.4
3. 99.9
4. 10.3
5. 12.8

---

Assay: qHTS of pediatric cancer cell lines to identify multiple opportunities for drug repurposing: Confirmatory screen for RD cells (AID 1347124);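 also: cells exposed to compound for 48 h before viability readout; nearly all actives have a fitted effect of over 65% in size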
Conditions: RD rhabdomyosarcoma cell viability; series mostly up to 45.9 µM
Records with an inconclusive call do not appear. The source made the active and inactive calls. Calls follow the shape of the dose curve; as a rule, active = well fitted cell-killing curve with a large enough effect; inconclusive = small, poorly fitted or top-dose-only effect, or effect the other way; inactive = no such curve, though single readings can be large or run the other way.
Pick one: active, inactive

Some solved entries appear below for comparison.
compound: COc1ccc(-c2cc3c(C)nc(N)nc3n(C3CCC(OCCO)CC3)c2=O)cn1 (stereo not given)
label value: inactive
//
compound: CC(C)C[C@H](NC(=O)CNC(=O)c1cc(Cl)ccc1Cl)B(O)O
label value: active

Answer briefly: the call reported for `CN1CC[C@@H](c2c(O)cc(O)c3c(=O)cc(-c4ccccc4Cl)oc23)[C@@H](O)C1` in this assay.
active

Answer briefly: the call reported for `Cc1c(NC(=O)OC[C@@H]2COCCN2)cn2ncnc(Nc3ccc4c(cnn4Cc4cccc(F)c4)c3)c12` in this assay.
inactive

Answer briefly: the call reported for `CC(C)(C)c1cnc(CSc2cnc(NC(=O)C3CCNCC3)s2)o1` in this assay.
active
